systemName: T1, human ferroportin (SLC40A1) fused in frame with GFP, stably expressed on HEK293 cells (human, UniProt Q9NP59 1-571)
T1 sequence (looked up): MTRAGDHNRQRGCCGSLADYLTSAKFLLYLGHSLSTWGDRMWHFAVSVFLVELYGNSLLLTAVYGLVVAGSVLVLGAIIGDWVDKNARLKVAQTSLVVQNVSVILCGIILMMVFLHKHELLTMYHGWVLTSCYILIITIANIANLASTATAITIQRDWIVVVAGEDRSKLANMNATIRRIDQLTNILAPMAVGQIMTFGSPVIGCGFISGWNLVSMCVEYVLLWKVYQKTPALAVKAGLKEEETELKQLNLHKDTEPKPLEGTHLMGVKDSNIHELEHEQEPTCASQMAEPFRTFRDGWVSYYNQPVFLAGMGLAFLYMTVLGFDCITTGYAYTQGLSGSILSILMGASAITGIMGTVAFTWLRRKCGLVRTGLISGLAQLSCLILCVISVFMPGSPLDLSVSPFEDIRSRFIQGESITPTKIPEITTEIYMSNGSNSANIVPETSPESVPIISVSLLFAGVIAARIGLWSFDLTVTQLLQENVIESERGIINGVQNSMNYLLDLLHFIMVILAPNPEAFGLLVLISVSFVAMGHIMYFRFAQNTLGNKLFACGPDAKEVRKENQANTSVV
protocolNotes: cell-based or functional assay
experimentalEndpoint: percent at the stated concentration, ferroportin internalization assay

Inquiry: Using the record for H-DTHFPCIIT-NH2 [Hy-DTHFPCIIT-NH2] , report its percent at the stated concentration, ferroportin internalization assay.
Reply text: 23 % at 1 uM

Inquiry: Using the record for H-DTHFPCILY-NH2 [Hy-DTHFPCILY-NH2] , report its percent at the stated concentration, ferroportin internalization assay.
Reply text: 85 % at 1 uM

Inquiry: Using the record for H-DTHFVCIIF-NH2 [Hy-DTHFVCIIF-NH2] , report its percent at the stated concentration, ferroportin internalization assay.
Reply text: 50 % at 10 uM

Inquiry: Using the record for H-DTHFPCIEY-NH2 [Hy-DTHFPCIEY-NH2] , report its percent at the stated concentration, ferroportin internalization assay.
Reply text: 8 % at 1 uM

Inquiry: Using the record for H-DTHFPCIIFAA-NH2 [Hy-DTHFPCIIFAA-NH2] , report its percent at the stated concentration, ferroportin internalization assay.
Reply text: 59 % at 1 uM

Inquiry: Using the record for H-DTHFPCIIY-NH2 [Hy-DTHFPCIIY-NH2] , report its percent at the stated concentration, ferroportin internalization assay.
Reply text: 75 % at 10 uM

Inquiry: Using the record for H-DPHFPCIIF-NH2 [Hy-DPHFPCIIF-NH2] , report its percent at the stated concentration, ferroportin internalization assay.
Reply text: 64 % at 10 uM

Inquiry: Using the record for H-DTHKPCIIF-NH2 [Hy-DTHKPCIIF-NH2] , report its percent at the stated concentration, ferroportin internalization assay.
Reply text: 45 % at 10 uM
